The origin of these recorded values is ChEMBL document CHEMBL4808165.

experiment: Clearance in Sprague-Dawley rat liver microsomes measured up to 30 mins in presence of NADPH by HPLC-MS/MS analysis; assay type: ADME, Microsome; conditions: read-out: CLH
Positions of bridges follow the written chain, without caps; N, C: chain ends. Non-standard residues stand in square brackets, D forms with d. Residues, ends and D or L forms follow the SMILES beside them. NMeNle = CCCC[C@H](NC)C(=O)O; Nle = CCCC[C@H](N)C(=O)O
// values below are reported microsomal CLint
property name: microsomal CLint

{"compound": "CCCC[C@@H]1NC(=O)[C@H](CCCC)N(C)C(=O)[C@@H]2CCCN2C(=O)[C@H](CCCC)N(C)C(=O)[C@H](Cc2ccccc2)NC(=O)CSC[C@@H](C(=O)NC)NC(=O)[C@H](CCCC)N(C)C1=O ({CH2CO}-F[NMeNle]P[NMeNle][Nle][NMeNle]C-NHMe; thioether N-7)", "property name": "microsomal CLint", "result": "≥ 480 µL/min/mg"}
{"compound": "CCCC[C@@H]1NC(=O)[C@H](CCCC)N(C)C(=O)[C@H](CCCC)NC(=O)[C@H](CCCC)N(C)C(=O)[C@H](CCCC)NC(=O)[C@H](CCCC)N(C)C(=O)[C@@H](Cc2ccccc2)NC(=O)CSC[C@@H](C(=O)NC)NC1=O", "property name": "microsomal CLint", "result": "≥ 120 µL/min/mg"}
{"compound": "CCCC[C@@H]1NC(=O)[C@H](Cc2ccccc2)NC(=O)CSC[C@H](C(=O)NC)NC(=O)[C@H](CCCC)N(C)C(=O)[C@H](CCCC)NC(=O)[C@H](CCCC)N(C)C1=O", "property name": "microsomal CLint", "result": "≥ 350 µL/min/mg"}
{"compound": "CCCC[C@@H]1NC(=O)[C@H](Cc2ccccc2)N(C)C(=O)CSC[C@H](C(=O)NC)N(C)C(=O)[C@H](CCCC)NC(=O)[C@H](CCCC)N(C)C(=O)C2CCCN2C1=O (stereo not given in full)", "property name": "microsomal CLint", "result": "≥ 350 µL/min/mg"}
{"compound": "CCCC[C@@H]1NC(=O)[C@H](CCCC)NC(=O)[C@H]2CCCN2C(=O)[C@H](CCCC)NC(=O)[C@H](Cc2ccccc2)NC(=O)CSC[C@H](C(=O)NC)NC(=O)[C@H](CCCC)NC1=O", "property name": "microsomal CLint", "result": "≥ 480 µL/min/mg"}
